- EXPERIMENT_NOTES: flow cytometry, total cellular PMP22, HEK293
- PARTICULARS: glycan lost; control: same variant with N41 intact
ENDPOINT: expression_or_secretion

[[record]]
protein = "peripheral myelin protein 22 (PMP22): A67T/N41Q (protein) parent chain: MLLLLLSIIVLHVAVLVLLFVSTIVSQWIVGNGHATDLWQNCSTSSSGNVHHCFSSSPNEWLQSVQTTMILSIIFSILSLFLFFCQLFTLTKGGRFYITGIFQILAGLCVMSAAAIYTVRHPEWHLNSDYSYGFAYILAWVAFPLALLSGVIYVILRKRE"
result = "increases"

[[record]]
protein = "peripheral myelin protein 22 (PMP22): G93R/N41Q (protein) parent chain: MLLLLLSIIVLHVAVLVLLFVSTIVSQWIVGNGHATDLWQNCSTSSSGNVHHCFSSSPNEWLQSVQATMILSIIFSILSLFLFFCQLFTLTKRGRFYITGIFQILAGLCVMSAAAIYTVRHPEWHLNSDYSYGFAYILAWVAFPLALLSGVIYVILRKRE"
result = "increases"

[[record]]
protein = "peripheral myelin protein 22 (PMP22): T118M/N41Q (protein) parent chain: MLLLLLSIIVLHVAVLVLLFVSTIVSQWIVGNGHATDLWQNCSTSSSGNVHHCFSSSPNEWLQSVQATMILSIIFSILSLFLFFCQLFTLTKGGRFYITGIFQILAGLCVMSAAAIYMVRHPEWHLNSDYSYGFAYILAWVAFPLALLSGVIYVILRKRE"
result = "increases"

